The origin of these recorded values is BigSolDB 2.1.

Conditions: in toluene, 278.15 K
readout name: solubility (mole fraction)

> print(dat)
                    structure.string                readout.name       val
1  COc1ccc(CN2CCNCC2)c(OC)c1OC.Cl.Cl  solubility (mole fraction)  7.02e-07

* * *

Conditions: in 2-butanone, 313.15 K
readout name: solubility (mole fraction)

> print(dat)
                    structure.string       val
1  COc1ccc(CN2CCNCC2)c(OC)c1OC.Cl.Cl  1.06e-05

* * *

Conditions: in ethanol, 323.15 K
readout name: solubility (mole fraction)

> print(dat)
                    structure.string                readout.name      val
1  COc1ccc(CN2CCNCC2)c(OC)c1OC.Cl.Cl  solubility (mole fraction)  0.00145
